# STUDY TARGET: KRAS Q61H (Homo sapiens (Human), UniProt P01116+P62937, Q61H)
# Sequence (P01116 other isoform, or with tags, fused parts or gaps Q61H, one chain of several): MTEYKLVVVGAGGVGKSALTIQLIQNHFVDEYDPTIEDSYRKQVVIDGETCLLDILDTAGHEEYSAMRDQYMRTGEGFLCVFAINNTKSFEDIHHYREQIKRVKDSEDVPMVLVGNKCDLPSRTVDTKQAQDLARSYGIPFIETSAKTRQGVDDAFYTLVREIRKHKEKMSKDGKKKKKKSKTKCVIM
# ASSAY EXPLANATION: Ras-Raf disruption/FRET/MOA assay (BRAF RBD, Cyclophilin A)
# Assay type: biochemical
pIC50: −log10 of the molar value.
METRIC NAME: pIC50

# return recorded pIC50 for input CCn1c(-c2cccnc2[C@H](C)OC)c2c3cc(ccc31)-c1csc(n1)C[C@H](NC(=O)[C@H](C(C)C)N(C)C(=O)N1[C@H](C)COC[C@@H]1C)C(=O)N1CCC[C@H](N1)C(=O)OCC(C)(C)C2 [Compound A276]
6.00 to 7.00

# return recorded pIC50 for input CCn1c(-c2cccnc2[C@H](C)OC)c2c3cc(ccc31)-c1csc(n1)C[C@H](NC(=O)[C@H](C(C)C)N(C)C(=O)N1CCC1C(=O)O)C(=O)N1CCC[C@H](N1)C(=O)OCC(C)(C)C2 (stereo partly drawn) [Compound A271]
6.00 to 7.00

# return recorded pIC50 for input CCn1c(-c2cccnc2[C@H](C)OC)c2c3cc(ccc31)-c1csc(n1)C[C@H](NC(=O)[C@H](C(C)C)N(C)C(=O)N(C)[C@H]1CCCN(C)C1)C(=O)N1CCC[C@H](N1)C(=O)OCC(C)(C)C2 [Compound A588]
6.00 to 7.00

# return recorded pIC50 for input CCn1c(-c2cccnc2[C@H](C)OC)c2c3cc(ccc31)-c1cc(O)cc(c1)C[C@H](NC(=O)[C@H](C(C)C)N(C)C(=O)N1CC(N(C)C)C1)C(=O)N1CCC[C@H](N1)C(=O)OCC(C)(C)C2 [Compound A170]
6.00 to 7.00

# return recorded pIC50 for input CCn1c(-c2cccnc2[C@H](C)OC)c2c3cc(ccc31)-c1cc(O)cc(c1)C[C@H](NC(=O)[C@@H]1CCCCCN1C(C)=O)C(=O)N1CCC[C@H](N1)C(=O)OCC(C)(C)C2 [Compound A176]
6.00 to 7.00

# return recorded pIC50 for input CCn1c(-c2cccnc2[C@H](C)OC)c2c3cc(ccc31)-c1csc(n1)C[C@H](NC(=O)[C@H](C(C)C)N(C)C(=O)N1CCC[C@H]1c1ccccc1)C(=O)N1CCC[C@H](N1)C(=O)OCC(C)(C)C2 [Compound A599]
6.00 to 7.00

# return recorded pIC50 for input CCn1c(-c2cccnc2[C@H](C)OC)c2c3cc(ccc31)-c1csc(n1)C[C@H](NC(=O)[C@H](C(C)C)N(C)C(=O)N(C)[C@@H]1CCN(C)C1)C(=O)N1CCC[C@H](N1)C(=O)OCC(C)(C)C2 [Compound A564]
7.00 to 8.00

# return recorded pIC50 for input CCn1c(-c2cccnc2[C@H](C)OC)c2c3cc(ccc31)-c1csc(n1)C[C@H](NC(=O)[C@H](C(C)C)N(C)C(=O)N(C)C1CN(C)C1)C(=O)N1CCC[C@H](N1)C(=O)OCC(C)(C)C2 [Compound A611]
6.00 to 7.00

====

Catalogue of molecules with associated IC50
# STUDY TARGET: KRAS G13D (Homo sapiens (Human), UniProt P01116+P62937, G13D)
# Sequence (P01116 other isoform, or with tags, fused parts or gaps G13D): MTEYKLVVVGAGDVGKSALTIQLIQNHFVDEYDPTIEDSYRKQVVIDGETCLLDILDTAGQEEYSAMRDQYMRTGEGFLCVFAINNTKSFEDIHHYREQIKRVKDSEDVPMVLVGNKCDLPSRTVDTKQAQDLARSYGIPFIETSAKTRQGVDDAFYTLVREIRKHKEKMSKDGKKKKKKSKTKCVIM
# Sequence (P62937 whole entry): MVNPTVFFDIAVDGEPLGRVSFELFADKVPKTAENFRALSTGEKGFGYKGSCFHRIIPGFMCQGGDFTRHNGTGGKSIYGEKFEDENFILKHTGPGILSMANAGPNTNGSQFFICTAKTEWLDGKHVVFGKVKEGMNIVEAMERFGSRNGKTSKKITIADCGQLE
# ASSAY EXPLANATION: Ras-Raf disruption/FRET/MOA assay (BRAF RBD, Cyclophilin A)
# Format: biochemical
# STUDY CONDITIONS: read-out: KRAS G13D FRET data IC50

Worked cases, IC50 given:
[[record]]
sample_smiles = "CCn1c(-c2cccnc2[C@H](C)OC)c2c3cc(ccc31)-c1cc(O)cc(c1)C[C@H](NC(=O)[C@H](C(C)C)N(C)C(=O)[C@H]1[C@@H]3CNC[C@@H]31)C(=O)N1CCC[C@H](N1)C(=O)OCC(C)(C)C2"
metric_name = "IC50"
observed_result = "10 to 100 nM"

[[record]]
sample_smiles = "CCn1c(-c2cccnc2[C@H](C)OC)c2c3cc(ccc31)-c1csc(n1)C[C@H](NC(=O)[C@H](C(C)C)N(C)C(=O)N1CC([C@H](C)N(C)C)C1)C(=O)N1CCC[C@H](N1)C(=O)OCC(C)(C)C2"
metric_name = "IC50"
observed_result = "100 to 1000 nM"

[[record]]
sample_smiles = "CCn1c(-c2cccnc2[C@H](C)OC)c2c3cc(ccc31)-c1csc(n1)C[C@H](NC(=O)[C@H](C(C)C)N(C)C(=O)N1CC(C(=O)N3CCOCC3)C1)C(=O)N1CCC[C@H](N1)C(=O)OCC(C)(C)C2"
metric_name = "IC50"
observed_result = "100 to 1000 nM"


# return recorded IC50 for input CCn1c(-c2cccnc2[C@H](C)OC)c2c3cc(ccc31)-c1cc(O)cc(c1)C[C@H](NC(=O)[C@H](C(C)C)N(C)C(=O)[C@H]1CCN(C(=O)CCc3ccccc3)C1)C(=O)N1CCC[C@H](N1)C(=O)OCC(C)(C)C2
100 to 1000 nM

====

# STUDY TARGET: NRAS WT (Homo sapiens (Human), UniProt P01111+P62937)
# Sequence (P01111 whole entry): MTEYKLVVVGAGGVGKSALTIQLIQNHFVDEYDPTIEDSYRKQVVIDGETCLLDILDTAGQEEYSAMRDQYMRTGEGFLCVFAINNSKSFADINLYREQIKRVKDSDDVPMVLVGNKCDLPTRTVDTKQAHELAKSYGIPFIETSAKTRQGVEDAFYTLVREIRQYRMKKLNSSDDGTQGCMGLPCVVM
# Sequence (P62937 whole entry): as the sequence (P62937 whole entry) above
# ASSAY EXPLANATION: Ras-Raf disruption/FRET/MOA assay (BRAF RBD, Cyclophilin A)
# Type: biochemical
# Protocol: Compound is present in plate wells as a 10-point 3-fold dilution series starting at a final concentration of 30 μM. After incubation at 25° C. for 3 hours, a mixture of Anti-His Eu—W1024 and anti-GST allophycocyanin is then added to assay sample wells at final concentrations of 10 nM and 50 nM, respectively, and the reaction incubated for an additional 1.5 hours. […]
METRIC NAME: IC50

# return recorded IC50 for input CCn1c(-c2cccnc2[C@H](C)OC)c2c3cc(ccc31)-c1csc(n1)C[C@H](NC(=O)[C@H](C(C)C)N(C)C(=O)N1CCCC3(CN(C)C3)C1)C(=O)N1CCC[C@H](N1)C(=O)OCC(C)(C)C2
0.1 to 1 µM

====

# STUDY TARGET: KRAS WT (Homo sapiens (Human), UniProt P01116+P62937)
# Sequence (P01116 other isoform, or with tags, fused parts or gaps, one chain of several): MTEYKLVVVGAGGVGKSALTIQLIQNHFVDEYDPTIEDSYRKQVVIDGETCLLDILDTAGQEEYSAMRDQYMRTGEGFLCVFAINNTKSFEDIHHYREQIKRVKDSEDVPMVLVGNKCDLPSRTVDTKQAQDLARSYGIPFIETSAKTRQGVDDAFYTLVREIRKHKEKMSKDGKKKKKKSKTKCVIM
# ASSAY EXPLANATION: Ras-Raf disruption/FRET/MOA assay (BRAF RBD, Cyclophilin A)
# Format: biochemical
# STUDY CONDITIONS: read-out: KRAS WT FRET data IC50
pIC50: −log10 of the molar value.
METRIC NAME: pIC50

Worked cases, pIC50 given:
[[record]]
compound = "CCn1c(-c2cccnc2[C@H](C)OC)c2c3cc(ccc31)-c1cc(O)cc(c1)C[C@H](NC(=O)[C@@H]1CCCCCN1C(C)=O)C(=O)N1CCC[C@H](N1)C(=O)OCC(C)(C)C2"
study_target = "KRAS WT (Homo sapiens (Human), UniProt P01116+P62937)"
observed_result = "6.00 to 7.00"

[[record]]
compound = "CCn1c(-c2cccnc2[C@H](C)OC)c2c3cc(ccc31)-c1cc(O)cc(c1)C[C@H](NC(=O)[C@H](C(C)C)N(C)C(=O)O[C@H]1CCN(C)C1)C(=O)N1CCC[C@H](N1)C(=O)OCC(C)(C)C2"
study_target = "KRAS WT (Homo sapiens (Human), UniProt P01116+P62937)"
observed_result = "6.00 to 7.00"

[[record]]
compound = "CCn1c(-c2cnccc2COC)c2c3cc(ccc31)-c1cc(O)cc(c1)C[C@H](NC(=O)[C@H](C(C)C)N(C)C(=O)CCCCN)C(=O)N1CCC[C@H](N1)C(=O)OCC(C)(C)C2"
study_target = "KRAS WT (Homo sapiens (Human), UniProt P01116+P62937)"
observed_result = "6.00 to 7.00"

[[record]]
compound = "CCn1c(-c2cccnc2[C@H](C)OC)c2c3cc(ccc31)-c1cc(O)cc(c1)C[C@H](NC(=O)[C@H](C(C)C)N(C)C(=O)C1CC(C)C1)C(=O)N1CCC[C@H](N1)C(=O)OCC(C)(C)C2 (stereo partly drawn)"
study_target = "KRAS WT (Homo sapiens (Human), UniProt P01116+P62937)"
observed_result = "6.00 to 7.00"

[[record]]
compound = "CCn1c(-c2cccnc2[C@H](C)OC)c2c3cc(ccc31)-c1csc(n1)C[C@H](NC(=O)[C@H](C(C)C)N1CCC3(CCN(S(C)(=O)=O)C3)C1=O)C(=O)N1CCC[C@H](N1)C(=O)OCC(C)(C)C2 (stereo partly drawn)"
study_target = "KRAS WT (Homo sapiens (Human), UniProt P01116+P62937)"
observed_result = "5.00 to 6.00"


# return pIC50 for CCn1c(-c2cccnc2[C@H](C)OC)c2c3cc(ccc31)-c1csc(n1)C[C@H](NC(=O)[C@H](C(C)C)N1CCCC1=O)C(=O)N1CCC[C@H](N1)C(=O)OCC(C)(C)C2 , test system: KRAS WT (Homo sapiens (Human), UniProt P01116+P62937)
< 5.00

# return pIC50 for CCn1c(-c2cnccc2COC)c2c3cc(ccc31)-c1cc(O)cc(c1)C[C@H](NC(=O)C(C)C1CCOCC1)C(=O)N1CCC[C@H](N1)C(=O)OCC(C)(C)C2 (stereo partly drawn) , test system: KRAS WT (Homo sapiens (Human), UniProt P01116+P62937)
5.00 to 6.00

# return pIC50 for CCn1c(-c2cccnc2[C@H](C)OC)c2c3cc(ccc31)-c1csc(n1)C[C@H](NC(=O)[C@H](C(C)C)N(C)C(=O)N1CC[C@@]3(CCNC3=O)C1)C(=O)N1CCC[C@H](N1)C(=O)OCC(C)(C)C2 , test system: KRAS WT (Homo sapiens (Human), UniProt P01116+P62937)
6.00 to 7.00

# return pIC50 for CCn1c(-c2cccnc2[C@H](C)OC)c2c3cc(ccc31)-c1csc(n1)C[C@H](NC(=O)[C@H](C(C)C)N(C)C(=O)N1[C@H](C)COC[C@H]1C)C(=O)N1CCC[C@H](N1)C(=O)OCC(C)(C)C2 , test system: KRAS WT (Homo sapiens (Human), UniProt P01116+P62937)
7.00 to 8.00

# return pIC50 for CCn1c(-c2cccnc2[C@H](C)OC)c2c3cc(ccc31)-c1cc(O)cc(c1)C[C@H](NS(=O)(=O)N1CCC1)C(=O)N1CCC[C@H](N1)C(=O)OCC(C)(C)C2 , test system: KRAS WT (Homo sapiens (Human), UniProt P01116+P62937)
< 5.00

# return pIC50 for CCn1c(-c2cccnc2[C@H](C)OC)c2c3cc(ccc31)-c1csc(n1)C[C@H](NC(=O)[C@H](C(C)C)N(CCc1ccncc1)C1CC1)C(=O)N1CCC[C@H](N1)C(=O)OCC(C)(C)C2 , test system: KRAS WT (Homo sapiens (Human), UniProt P01116+P62937)
6.00 to 7.00

# return pIC50 for CCn1c(-c2cccnc2[C@H](C)OC)c2c3cc(ccc31)-c1csc(n1)C[C@H](NC(=O)[C@H](C(C)C)N(C)C(=O)N1CC[C@@H]1CN)C(=O)N1CCC[C@H](N1)C(=O)OCC(C)(C)C2 , test system: KRAS WT (Homo sapiens (Human), UniProt P01116+P62937)
7.00 to 8.00

# return pIC50 for CCn1c(-c2cccnc2[C@H](C)OC)c2c3cc(ccc31)-c1cc(O)cc(c1)C[C@H](NC(=O)[C@H](C(C)C)N(C)C(=O)C1(C(F)F)CCCO1)C(=O)N1CCC[C@H](N1)C(=O)OCC(C)(C)C2 (stereo partly drawn) , test system: KRAS WT (Homo sapiens (Human), UniProt P01116+P62937)
6.00 to 7.00

# return pIC50 for CO[C@@H](C)c1ncccc1-c1c2c3cc(ccc3n1C)-c1cc(O)cc(c1)C[C@H](NC(=O)[C@H](C(C)C)N(C)C(C)=O)C(=O)N1CCC[C@H](N1)C(=O)OCC(C)(C)C2 , test system: KRAS WT (Homo sapiens (Human), UniProt P01116+P62937)
< 5.00

# return pIC50 for CCn1c(-c2cnccc2COC)c2c3cc(ccc31)-c1cc(O)cc(c1)C[C@H](NC(=O)[C@H](C(C)C)N(C)C(=O)[C@@H](C)O)C(=O)N1CCC[C@H](N1)C(=O)OCC(C)(C)C2 , test system: KRAS WT (Homo sapiens (Human), UniProt P01116+P62937)
5.00 to 6.00
